tested on: HMEC-1; assay: Antiproliferative activity against human HMEC-1 cells assessed as reduction in cell viability at IC50 measured after 72 hrs by trypan blue dye based assay relative to control; assay type: toxicity; conditions: hmec-1, 72 h
quantity: Activity

> print(dat)
                                   compound  quantity  observed.value
1  CC12C(=O)C(C)(C(c3ccccc3)=C1c1ccccc1)C1C(=O)N(CCCCN3CCN(c4ccccc4Cl)CC3)C(=O)C12 (stereo unspecified)  Activity       Non-Toxic
2  CC12C(=O)C(C)(C(c3ccccc3)=C1c1ccccc1)C1C(=O)N(CCCCN3CCN(c4ccccn4)CC3)C(=O)C12 (stereo unspecified)  Activity       Non-Toxic
3  COc1ccccc1N1CCN(CCCCN2C(=O)C3C(C2=O)C2(C)C(=O)C3(C)C(c3ccccc3)=C2c2ccccc2)CC1 (stereo unspecified)  Activity       Non-Toxic
4  CC12C(=O)C(C)(C(c3ccccc3)=C1c1ccccc1)C1C(=O)N(CCCCN3CCN(c4ccccc4F)CC3)C(=O)C12 (stereo unspecified)  Activity       Non-Toxic
5  CC12C(=O)C(C)(C(c3ccccc3)=C1c1ccccc1)C1C(=O)N(CCCCN3CCN(c4cccc(Cl)c4)CC3)C(=O)C12 (stereo unspecified)  Activity       Non-Toxic
6  CC12C(=O)C(C)(C(c3ccccc3)=C1c1ccccc1)C1C(=O)N(CCCCN3CCN(c4ncccn4)CC3)C(=O)C12 (stereo unspecified)  Activity       Non-Toxic

====

tested on: K562; test: Induction of apoptosis in human K562 cells assessed as viable cells at IC50 incubated for 72 hrs by Annexin V-FITC/PI staining based flow cytometric analysis (reference value: 89 %); format: functional
quantity: Activity (%)

> print(dat)
                                   compound  system  observed.value
1  CC12C(=O)C(C)(C(c3ccccc3)=C1c1ccccc1)C1C(=O)N(CCCCN3CCN(c4cccc(Cl)c4)CC3)C(=O)C12 (stereo unspecified)    K562            59.5
2  CC12C(=O)C(C)(C(c3ccccc3)=C1c1ccccc1)C1C(=O)N(CCCCN3CCN(c4ccccc4F)CC3)C(=O)C12 (stereo unspecified)    K562            56.9
3  CC12C(=O)C(C)(C(c3ccccc3)=C1c1ccccc1)C1C(=O)N(CCCCN3CCN(c4ncccn4)CC3)C(=O)C12 (stereo unspecified)    K562            77.3
4  CC12C(=O)C(C)(C(c3ccccc3)=C1c1ccccc1)C1C(=O)N(CCCCN3CCN(c4ccccn4)CC3)C(=O)C12 (stereo unspecified)    K562            36.1
5  CC12C(=O)C(C)(C(c3ccccc3)=C1c1ccccc1)C1C(=O)N(CCCCN3CCN(c4ccccc4Cl)CC3)C(=O)C12 (stereo unspecified)    K562              67
6  COc1ccccc1N1CCN(CCCCN2C(=O)C3C(C2=O)C2(C)C(=O)C3(C)C(c3ccccc3)=C2c2ccccc2)CC1 (stereo unspecified)    K562            22.4

====

test system: HepG2; test: Cytotoxicity against human HepG2 cells assessed as cell growth inhibition measured after 72 hrs by MTT assay; format: functional, cell-based; conditions: HepG2, 72 h
quantity: IC50 (µM)

> print(dat)
                                   molecule  observed.value
1  CC12C(=O)C(C)(C(c3ccccc3)=C1c1ccccc1)C1C(=O)N(CCCCN3CCN(c4cccc(Cl)c4)CC3)C(=O)C12 (configuration not stated)            14.1
2  CC12C(=O)C(C)(C(c3ccccc3)=C1c1ccccc1)C1C(=O)N(CCCCN3CCN(c4ncccn4)CC3)C(=O)C12 (configuration not stated)            16.7
3  CC12C(=O)C(C)(C(c3ccccc3)=C1c1ccccc1)C1C(=O)N(CCCCN3CCN(c4ccccn4)CC3)C(=O)C12 (configuration not stated)            14.6
4  CC12C(=O)C(C)(C(c3ccccc3)=C1c1ccccc1)C1C(=O)N(CCCCN3CCN(c4ccccc4F)CC3)C(=O)C12 (configuration not stated)            26.8
5  CC12C(=O)C(C)(C(c3ccccc3)=C1c1ccccc1)C1C(=O)N(CCCCN3CCN(c4ccccc4Cl)CC3)C(=O)C12 (configuration not stated)            12.9
6  COc1ccccc1N1CCN(CCCCN2C(=O)C3C(C2=O)C2(C)C(=O)C3(C)C(c3ccccc3)=C2c2ccccc2)CC1 (configuration not stated)            15.7
7  COc1cccc2c1C(=O)c1c(O)c3c(c(O)c1C2=O)C[C@@](O)(C(=O)CO)C[C@@H]3O[C@H]1C[C@H](N)[C@H](O)[C@H](C)O1            0.29

====

The compounds listed here are annotated with their Activity.
system: HCT-116; experiment: Antiproliferative activity against human HCT-116 cells assessed as reduction in cell number at IC50 measured after 72 hrs by trypan blue dye based assay relative to control; type: functional; set-up: scale not given: the % may be the effect or the level left
quantity: Activity (%)

> print(dat)
                                   compound  quantity  observed.value
1  CC12C(=O)C(C)(C(c3ccccc3)=C1c1ccccc1)C1C(=O)N(CCCCN3CCN(c4ncccn4)CC3)C(=O)C12 (stereo unspecified)  Activity              49
2  COc1ccccc1N1CCN(CCCCN2C(=O)C3C(C2=O)C2(C)C(=O)C3(C)C(c3ccccc3)=C2c2ccccc2)CC1 (stereo unspecified)  Activity              44
3  CC12C(=O)C(C)(C(c3ccccc3)=C1c1ccccc1)C1C(=O)N(CCCCN3CCN(c4ccccn4)CC3)C(=O)C12 (stereo unspecified)  Activity              28
4  CC12C(=O)C(C)(C(c3ccccc3)=C1c1ccccc1)C1C(=O)N(CCCCN3CCN(c4cccc(Cl)c4)CC3)C(=O)C12 (stereo unspecified)  Activity              26
5  CC12C(=O)C(C)(C(c3ccccc3)=C1c1ccccc1)C1C(=O)N(CCCCN3CCN(c4ccccc4F)CC3)C(=O)C12 (stereo unspecified)  Activity              35
6  CC12C(=O)C(C)(C(c3ccccc3)=C1c1ccccc1)C1C(=O)N(CCCCN3CCN(c4ccccc4Cl)CC3)C(=O)C12 (stereo unspecified)  Activity              29

====

molecular target: 5-hydroxytryptamine receptor 2A (Rattus norvegicus)
Sequence (P14842 whole entry): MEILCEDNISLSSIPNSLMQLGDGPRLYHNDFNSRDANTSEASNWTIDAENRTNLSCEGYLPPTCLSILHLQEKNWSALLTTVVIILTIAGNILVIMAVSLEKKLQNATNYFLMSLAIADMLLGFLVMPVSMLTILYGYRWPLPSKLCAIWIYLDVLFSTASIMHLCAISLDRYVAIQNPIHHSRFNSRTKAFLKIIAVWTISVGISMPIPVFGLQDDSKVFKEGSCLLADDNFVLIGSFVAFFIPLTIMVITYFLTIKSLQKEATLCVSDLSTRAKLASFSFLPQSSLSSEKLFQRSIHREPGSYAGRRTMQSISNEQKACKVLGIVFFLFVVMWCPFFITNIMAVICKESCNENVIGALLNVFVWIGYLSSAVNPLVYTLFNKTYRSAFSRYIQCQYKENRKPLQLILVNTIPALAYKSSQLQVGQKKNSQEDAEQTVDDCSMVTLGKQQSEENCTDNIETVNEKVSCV
pKi: −log10 of the molar value.
quantity: pKi

> print(dat)
                                   compound                                    system  observed.value
1  CC12C(=O)C(C)(C(c3ccccc3)=C1c1ccccc1)C1C(=O)N(CCCCN3CCN(c4ccccc4F)CC3)C(=O)C12 (configuration not stated)  5-hydroxytryptamine receptor 2A (Rattus norvegicus)            6.52
2  CC12C(=O)C(C)(C(c3ccccc3)=C1c1ccccc1)C1C(=O)N(CCCCN3CCN(c4cccc(Cl)c4)CC3)C(=O)C12 (configuration not stated)  5-hydroxytryptamine receptor 2A (Rattus norvegicus)            4.60

====

experiment: Cytotoxicity against human HMEC-1 cells assessed as cell growth inhibition measured after 72 hrs by MTT assay; type: toxicity, cell-based
Recorded IC50 at 72 h by entry
quantity: IC50 at 72 h

> print(dat)
                                   compound      quantity  observed.value
1  CC12C(=O)C(C)(C(c3ccccc3)=C1c1ccccc1)C1C(=O)N(CCCCN3CCN(c4cccc(Cl)c4)CC3)C(=O)C12 (centres undefined)  IC50 at 72 h         21.9 µM
2  CC12C(=O)C(C)(C(c3ccccc3)=C1c1ccccc1)C1C(=O)N(CCCCN3CCN(c4ccccc4F)CC3)C(=O)C12 (centres undefined)  IC50 at 72 h         17.7 µM
3  CC12C(=O)C(C)(C(c3ccccc3)=C1c1ccccc1)C1C(=O)N(CCCCN3CCN(c4ncccn4)CC3)C(=O)C12 (centres undefined)  IC50 at 72 h         30.5 µM
4  COc1ccccc1N1CCN(CCCCN2C(=O)C3C(C2=O)C2(C)C(=O)C3(C)C(c3ccccc3)=C2c2ccccc2)CC1 (centres undefined)  IC50 at 72 h         30.2 µM

====

system: HCT-116; assay: Induction of apoptosis in human HCT-116 cells assessed as viable cells at IC50 incubated for 72 hrs by Annexin V-FITC/PI staining based flow cytometric analysis (reference value: 90.5 %); assay type: functional
Reported values of Activity for individual entries
quantity: Activity (%)

> print(dat)
                                   compound   system  quantity  observed.value
1  CC12C(=O)C(C)(C(c3ccccc3)=C1c1ccccc1)C1C(=O)N(CCCCN3CCN(c4cccc(Cl)c4)CC3)C(=O)C12 (stereo unspecified)  HCT-116  Activity            81.5
2  CC12C(=O)C(C)(C(c3ccccc3)=C1c1ccccc1)C1C(=O)N(CCCCN3CCN(c4ccccc4Cl)CC3)C(=O)C12 (stereo unspecified)  HCT-116  Activity              58
3  CC12C(=O)C(C)(C(c3ccccc3)=C1c1ccccc1)C1C(=O)N(CCCCN3CCN(c4ccccn4)CC3)C(=O)C12 (stereo unspecified)  HCT-116  Activity            85.5
4  CC12C(=O)C(C)(C(c3ccccc3)=C1c1ccccc1)C1C(=O)N(CCCCN3CCN(c4ccccc4F)CC3)C(=O)C12 (stereo unspecified)  HCT-116  Activity            74.9
5  COc1ccccc1N1CCN(CCCCN2C(=O)C3C(C2=O)C2(C)C(=O)C3(C)C(c3ccccc3)=C2c2ccccc2)CC1 (stereo unspecified)  HCT-116  Activity            79.2
6  CC12C(=O)C(C)(C(c3ccccc3)=C1c1ccccc1)C1C(=O)N(CCCCN3CCN(c4ncccn4)CC3)C(=O)C12 (stereo unspecified)  HCT-116  Activity            37.4
